- method.notes: Nuclear factor erythroid 2-related factor 2/antioxidant responsive element (Nrf2/ARE) small molecule agonists: qHTS cell viability counter screen in human keratinocytes (AID 1919968); further: nearly all actives have a fitted effect of over 55% in size
- recorded.conditions: KeratinoSens HaCaT ARE cells viability, CellTiter-Fluor, 24 h; series mostly up to 92.4 µM
- From the text: U.S. Tox21 Program National Center for Advancing Translational Sciences [NCATS] Division of Preclinical Innovation [DPI] U.S. Environmental Protection Agency [EPA] National Institutes of Environmental Health Sciences [NIEHS] National Toxicology Program [NTP] U.S. Food and Drug Administration [FDA] […] The activation of the report gene under culture conditions can be detected by ONE-Glo Luciferase Assay System (Promega, Madison, WI). […]
Results filed as inconclusive are left out. The source made the active and inactive calls. The call rests on the fitted dose curve; in most records, active means well fitted cell-killing curve with a large enough effect in the repeat runs; inconclusive means weak or mixed curves, or effect the other way; inactive means flat fitted curve, though single readings scatter.
Entry note: the call must match one of yes (1) for active, no (0) for inactive

O=C1OCCO1 | no (0)

Fill in: this test's call for `CC[C@]1(O)C[C@@H]2CN(CCc3c([nH]c4ccccc34)[C@@](C(=O)OC)(c3cc4c(cc3OC)N(C)[C@H]3[C@@](O)(C(=O)OC)[C@H](OC(C)=O)[C@]5(CC)C=CCN6CC[C@]43[C@@H]65)C2)C1` is ___
no (0)

---

- test.target: Gonadotropin-releasing hormone receptor (Homo sapiens) (UniProt P30968)
- Sequence (P30968 whole entry, looked up): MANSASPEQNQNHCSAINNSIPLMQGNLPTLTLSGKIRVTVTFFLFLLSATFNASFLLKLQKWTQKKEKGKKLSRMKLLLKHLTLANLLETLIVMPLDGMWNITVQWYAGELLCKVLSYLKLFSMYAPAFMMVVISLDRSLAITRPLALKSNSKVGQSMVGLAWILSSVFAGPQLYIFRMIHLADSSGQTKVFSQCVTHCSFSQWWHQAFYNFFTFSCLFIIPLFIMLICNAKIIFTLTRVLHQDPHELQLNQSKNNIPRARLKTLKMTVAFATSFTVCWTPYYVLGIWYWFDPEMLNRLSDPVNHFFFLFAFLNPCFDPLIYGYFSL
- method.notes: Human gonadotropin-releasing hormone receptor (GnRHR) small molecule agonists, calcium flux assay in GnRHR-HEK293 cells (AID 1920063); further: nearly all actives have a fitted effect of over 35% in size
- recorded.conditions: calcium flux fluorescence, agonist mode; series mostly up to 57.6 µM
The source made the active and inactive calls. Calls come from the whole dose curve.
property.measured: activity change

Below, 6 compounds whose answers are already recorded.
Cc1c(C(=O)c2c[nH]n(C)c2=O)ccc(S(C)(=O)=O)c1C1=NOCC1 | inactive
CC(C)N=C(N)/N=C(\N)Nc1ccc(Cl)cc1 | inactive
CC1=CCC(=O)O1 | inactive
CC1=C(CC(=O)O)c2cc(F)ccc2/C1=C\c1ccc(S(C)=O)cc1 (configuration not stated) | inactive
CCCCC(CC)COCC1CO1 (configuration not stated) | inactive
CC(C)(C)c1ccc(C(=O)CCCCl)cc1 | inactive

Proceed to the following item.
Quick one: activity change of `O=Nc1ccc(Nc2ccccc2)cc1` ?
inactive

---

- method.notes: Nuclear factor erythroid 2-related factor 2/antioxidant responsive element (Nrf2/ARE) small molecule agonists: qHTS cell viability counter screen in human keratinocytes (AID 1919968); further: nearly all actives have a fitted effect of over 55% in size
- recorded.conditions: KeratinoSens HaCaT ARE cells viability, CellTiter-Fluor, 24 h; series mostly up to 92.4 µM
Records with an inconclusive call do not appear. Active and inactive are the calls of the source. The call rests on the fitted dose curve; in most records, active means well fitted cell-killing curve with a large enough effect in the repeat runs; inconclusive means weak or mixed curves, or effect the other way; inactive means flat fitted curve, though single readings scatter.
Select the matching outcome among active, inactive

// return assay outcome for `CS(=O)(=O)O`
inactive

Try `C=CCOCC(CO)(COCC=C)COCC=C` next.
inactive

CC1(C)C(O)C(C)(C)C1O (centres undefined) ?
inactive

Now consider `COC(=O)Nc1nc2ccc(Sc3ccccc3)cc2[nH]1` .
inactive

How about this compound: `CC(C)(C)c1ccc(C=O)cc1`
inactive

Entry to check: `CC(C)COC(=O)c1ccccc1O`
inactive

---

- method.notes: p53 small molecule agonists, cell-based qHTS assay with rat liver microsomes (AID 1963578)
- recorded.conditions: HCT-116 p53RE-bla, beta-lactamase ratio, 16 h; series mostly up to 66 µM
Results filed as inconclusive are left out. Calls of active or inactive are those of the source. The call rests on the fitted dose curve.
property.measured: activation

Use the examples below as a reference point.
CC(=O)c1cccc([N+](=O)[O-])c1 | inactive
CCCCCCCCS | inactive
Nc1ccc([N+](=O)[O-])c(C(F)(F)F)c1 | inactive
O=C(O)C1CCC(C(=O)O)CC1 (centres undefined) | inactive
C=CCCC(=O)/C=C/C1C(C)=CCCC1(C)C (centres undefined) | inactive
O=C1NCCN1CCO | inactive
c1cnc2cc3c(cc2n1)C1CNCC3C1 | inactive
Cc1oncc1C(=O)Nc1ccc(C(F)(F)F)cc1 | inactive

Record request: activation value, item `CCOC(=O)O[C@]1(C(=O)OCCl)CC[C@H]2[C@@H]3CCC4=CC(=O)C=C[C@]4(C)[C@H]3[C@@H](O)C[C@@]21C`
inactive

`COc1ccccc1C=O` , same question.
inactive

What do you have for `O=C(O)c1ccc(OCCN2CCCCC2)cc1` ?
inactive

Please do the same for `CC(C)S` as well.
inactive

Another molecule to check: CC(C=O)c1ccccc1 (centres undefined)
inactive

Ok, now `O=C(Nc1ccc(Cl)cc1)Nc1ccc(Cl)c(Cl)c1`
inactive
